# Lookup of reported pIC50 keyed by entry
Test system: 883617-216-R-J1-PDC complex spheroid viability
assay_remarks: Anticancer human tumor 883617-216-R-J1-PDC patient-derived bladder carcinoma cell line growth inhibition
condition_details: curve of first compound; second compound 1 µM
Description: Multicellular complex tumor spheroid response to LSD1 Inhibitor Iadademstat in combination with a variety of drugs and investigational agents in selected tumor cell lines The current study was undertaken to assess response to LSD1 inhibitors in combination with standard-of-care drugs and investigational agents in solid tumor complex spheroid models as well as in the K-562 leukemia. […] Compounds. […] If the clinical Cmax for an agent had not been determined, the highest concentration tested was 10 microM. […]
pIC50: −log10 of the molar value.

[
  {
    "compound": "COc1ccc([C@@H](O)c2cc(-c3ncnc4cc(N5CCOCC5)ccc34)c(F)cc2Cl)nn1 + NC1CCC(NC2CC2c2ccccc2)CC1",
    "modifier_sign": "=",
    "pIC50": 5.88
  },
  {
    "compound": "CCc1c2c(nc3ccc(O)cc13)-c1cc3c(c(=O)n1C2)COC(=O)[C@]3(O)CC + NC1CC1c1ccc(-c2cccc(O)c2)cc1",
    "modifier_sign": ">",
    "pIC50": 9.02
  },
  {
    "compound": "CC1(C)CCC(CN2CCN(c3ccc(C(=O)NS(=O)(=O)c4ccc(NCC5CCOCC5)c([N+](=O)[O-])c4)c(Oc4cnc5[nH]ccc5c4)c3)CC2)=C(c2ccc(Cl)cc2)C1 + NC1CCC(NC2CC2c2ccccc2)CC1",
    "modifier_sign": "=",
    "pIC50": 5.13
  },
  {
    "compound": "CC[C@@]1(O)C(=O)OCc2c1cc1n(c2=O)Cc2cc3c(CN(C)C)c(O)ccc3nc2-1 + NC1CC1c1ccc(-c2cccc(O)c2)cc1",
    "modifier_sign": "=",
    "pIC50": 8.68
  },
  {
    "compound": "Nc1ncn(C2CC(O)C(CO)S2)c(=O)n1 (stereo not given) + NC1CC1c1ccc(-c2cccc(O)c2)cc1",
    "modifier_sign": "=",
    "pIC50": 7.47
  },
  {
    "compound": "Cn1ncnc1C1c2n[nH]c(=O)c3cc(F)cc(c23)NC1c1ccc(F)cc1 (stereo not given) + NC1CCC(NC2CC2c2ccccc2)CC1",
    "modifier_sign": "<",
    "pIC50": 7.00
  },
  {
    "compound": "CC(C)CC(NC(=O)C(Cc1ccccc1)NC(=O)c1cnccn1)B(O)O (stereo not given) + NC1CCC(NC2CC2c2ccccc2)CC1",
    "modifier_sign": "=",
    "pIC50": 8.80
  },
  {
    "compound": "O=C(C=Cn1cnc(-c2cc(C(F)(F)F)cc(C(F)(F)F)c2)n1)NNc1cnccn1 + NC1CCC(NC2CC2c2ccccc2)CC1",
    "modifier_sign": "=",
    "pIC50": 7.94
  },
  {
    "compound": "CC(C)c1c(-c2ccccc2)nc2c(C#N)c[nH]n2c1=O + NC1CC1c1ccc(-c2cccc(O)c2)cc1",
    "modifier_sign": "<",
    "pIC50": 5.00
  },
  {
    "compound": "Nc1ncn(C2CC(O)C(CO)O2)c(=O)n1 (stereo not given) + NC1CCC(NC2CC2c2ccccc2)CC1",
    "modifier_sign": "<",
    "pIC50": 6.00
  },
  {
    "compound": "O=C(C=Cc1cccc(S(=O)(=O)Nc2ccccc2)c1)NO + NC1CCC(NC2CC2c2ccccc2)CC1",
    "modifier_sign": "=",
    "pIC50": 6.86
  },
  {
    "compound": "CC1(C)CCC(CN2CCN(c3ccc(C(=O)NS(=O)(=O)c4ccc(NCC5CCOCC5)c([N+](=O)[O-])c4)c(Oc4cnc5[nH]ccc5c4)c3)CC2)=C(c2ccc(Cl)cc2)C1 + NC1CC1c1ccc(-c2cccc(O)c2)cc1",
    "modifier_sign": "=",
    "pIC50": 5.19
  },
  {
    "compound": "O=C(c1cc(Cc2n[nH]c(=O)c3ccccc23)ccc1F)N1CCN(C(=O)C2CC2)CC1 + NC1CC1c1ccc(-c2cccc(O)c2)cc1",
    "modifier_sign": "=",
    "pIC50": 5.97
  },
  {
    "compound": "NS(=O)(=O)OCC1CC(n2ccc3c(NC4CCc5ccccc54)ncnc32)CC1O (stereo not given) + NC1CCC(NC2CC2c2ccccc2)CC1",
    "modifier_sign": "=",
    "pIC50": 6.34
  },
  {
    "compound": "CC1COCCN1c1cc(C2(S(C)(=N)=O)CC2)nc(-c2ccnc3[nH]ccc23)n1 (stereo not given) + NC1CCC(NC2CC2c2ccccc2)CC1",
    "modifier_sign": "=",
    "pIC50": 5.97
  }
]

###

Let's look at some compounds and their measured viability, T/C.
Test system: 883617-216-R-J1-PDC complex spheroid viability
assay_remarks: Anticancer human tumor 883617-216-R-J1-PDC cell line growth inhibition;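 also: exposure lasted seven days after three days of spheroid growth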;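 as to viability, T/C: 100% = DMSO vehicle control luminescence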
condition_details: second compound 1 µM; first compound 3.16 µM; stronger effect = lower value
quantity_name: viability, T/C (%)

[
  {
    "compound": "CC1(C)CCC(CN2CCN(c3ccc(C(=O)NS(=O)(=O)c4ccc(NCC5CCOCC5)c([N+](=O)[O-])c4)c(Oc4cnc5[nH]ccc5c4)c3)CC2)=C(c2ccc(Cl)cc2)C1 + NC1CC1c1ccc(-c2cccc(O)c2)cc1",
    "quantity_name": "viability, T/C",
    "unit_info": "%",
    "observed_result": 102
  },
  {
    "compound": "CC1COCCN1c1cc(C2(S(C)(=N)=O)CC2)nc(-c2ccnc3[nH]ccc23)n1 (stereo not drawn) + NC1CC1c1ccc(-c2cccc(O)c2)cc1",
    "quantity_name": "viability, T/C",
    "unit_info": "%",
    "observed_result": 29.1
  },
  {
    "compound": "COc1ccc([C@@H](O)c2cc(-c3ncnc4cc(N5CCOCC5)ccc34)c(F)cc2Cl)nn1 + NC1CC1c1ccc(-c2cccc(O)c2)cc1",
    "quantity_name": "viability, T/C",
    "unit_info": "%",
    "observed_result": 32.7
  }
]

###

Test system: 883617-216-R-J1-PDC complex spheroid viability
assay_remarks: Anticancer human tumor 883617-216-R-J1-PDC cell line growth inhibition;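 also: exposure lasted seven days after three days of spheroid growth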;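 as to viability, T/C: 100% = DMSO vehicle control luminescence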
condition_details: second compound 1 µM; first compound 0.00316 µM; stronger effect = lower value

[
  {
    "compound": "CC1COCCN1c1cc(-c2ccnn2C)c2ccnc(-c3ccn[nH]3)c2n1 (stereo not given) + NC1CC1c1ccc(-c2cccc(O)c2)cc1",
    "unit_info": "%",
    "viability, T/C": 60.1
  },
  {
    "compound": "O=C(C=Cn1cnc(-c2cc(C(F)(F)F)cc(C(F)(F)F)c2)n1)NNc1cnccn1 + NC1CC1c1ccc(-c2cccc(O)c2)cc1",
    "unit_info": "%",
    "viability, T/C": 66.5
  },
  {
    "compound": "Cn1ncnc1C1c2n[nH]c(=O)c3cc(F)cc(c23)NC1c1ccc(F)cc1 (stereo not given) + NC1CC1c1ccc(-c2cccc(O)c2)cc1",
    "unit_info": "%",
    "viability, T/C": 68.6
  },
  {
    "compound": "CC(C)CC(NC(=O)CNC(=O)c1cc(Cl)ccc1Cl)B1OC(=O)CC(CC(=O)O)(C(=O)O)O1 (stereo not given) + NC1CCC(NC2CC2c2ccccc2)CC1",
    "unit_info": "%",
    "viability, T/C": 83
  },
  {
    "compound": "CC(C)CC(NC(=O)CNC(=O)c1cc(Cl)ccc1Cl)B1OC(=O)CC(CC(=O)O)(C(=O)O)O1 (stereo not given) + NC1CC1c1ccc(-c2cccc(O)c2)cc1",
    "unit_info": "%",
    "viability, T/C": 39.5
  }
]

###

Tested on: 883617-216-R-J1-PDC complex spheroid viability
assay_remarks: Anticancer human tumor 883617-216-R-J1-PDC cell line growth inhibition;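 also: exposure lasted seven days after three days of spheroid growth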;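 as to viability, T/C: 100% = DMSO vehicle control luminescence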
condition_details: second compound 10 µM; first compound 0.00316 µM; stronger effect = lower value
# Lookup of reported viability, T/C keyed by entry

[
  {
    "compound": "COc1cc(Nc2ncc3c(n2)-c2ccc(Cl)cc2C(c2c(F)cccc2OC)=NC3)ccc1C(=O)O + NC1CCC(NC2CC2c2ccccc2)CC1",
    "measurement_target": "883617-216-R-J1-PDC complex spheroid viability",
    "viability, T/C [%]": 93.5
  },
  {
    "compound": "Cn1ncnc1C1c2n[nH]c(=O)c3cc(F)cc(c23)NC1c1ccc(F)cc1 (stereo not drawn) + NC1CC1c1ccc(-c2cccc(O)c2)cc1",
    "measurement_target": "883617-216-R-J1-PDC complex spheroid viability",
    "viability, T/C [%]": 58.1
  },
  {
    "compound": "CC(C)CC(NC(=O)CNC(=O)c1cc(Cl)ccc1Cl)B1OC(=O)CC(CC(=O)O)(C(=O)O)O1 (stereo not drawn) + NC1CCC(NC2CC2c2ccccc2)CC1",
    "measurement_target": "883617-216-R-J1-PDC complex spheroid viability",
    "viability, T/C [%]": 79
  }
]

src = PubChem BioAssay AID1918945
